Cited source for all entries: patent US5436260A

Known pIC50 of a selection of compounds
# Tested system: AT1 receptor (Rattus norvegicus, UniProt P25095)
pIC50: −log10 of the molar value. Structures can show the parent of a compound that is named as a salt.

| Compound | Value relation sign | pIC50 |
| --- | --- | --- |
| CCCCc1ncc(/C=C2/C(=O)N(CCCC)C(=O)N2Cc2ccccn2)n1Cc1ccc(C(=O)OC)cc1 [Example 58, dihydrochloride] | = | 8.24 |
| CCCCc1ncc(/C=C2/C(=O)NC(=O)N2Cc2ccc(Cl)cc2)n1Cc1ccc(C(=O)O)cc1 [Example 20b] | = | 8.61 |
| CCCCCCN1C(=O)/C(=C/c2cnc(CCCC)n2Cc2ccc(C(=O)OC)cc2)N(Cc2ccsc2)C1=O [Example 49, monohydrochloride] | = | 8.02 |
| CCCCc1ncc(/C=C2\C(=O)NC(=O)N2CCCCO)n1Cc1ccc(C(=O)OC)cc1 [Example 17a] | = | 7.01 |
| CCCCc1ncc(CC2C(=O)NC(=O)N2CCCC)n1Cc1ccc(C(=O)O)cc1 (stereo not drawn) | = | 6.70 |
| CCCCc1ncc(/C=C2/C(=O)N(CCCC)C(=O)N2CCc2ccsc2)n1Cc1ccc(C(=O)OC)cc1 [Example 80, monohydrochloride] | = | 7.84 |
| CCCCc1ncc(/C=C2/C(=O)N(CCCC)C(=O)N2Cc2ccc([N+](=O)[O-])cc2)n1Cc1ccc(C(=O)OC)cc1 [Example 38, mono hydrochloride] | = | 7.77 |
| CCCCc1ncc(/C=C2/C(=O)N(CCCC)C(=O)N2CC(=O)c2ccccc2)n1Cc1ccc(C(=O)OC)cc1 [Example 104, monohydrochloride] | < | 6.00 |
| CCCCCCN1C(=O)N(CCCC)C(=O)/C1=C/c1cnc(CCCC)n1Cc1ccc(C(=O)OC)cc1 [Example 35, monohydrochloride] | = | 7.40 |

----------
# Tested system: UniProtKB P25095
# Sequence (P25095 1-359): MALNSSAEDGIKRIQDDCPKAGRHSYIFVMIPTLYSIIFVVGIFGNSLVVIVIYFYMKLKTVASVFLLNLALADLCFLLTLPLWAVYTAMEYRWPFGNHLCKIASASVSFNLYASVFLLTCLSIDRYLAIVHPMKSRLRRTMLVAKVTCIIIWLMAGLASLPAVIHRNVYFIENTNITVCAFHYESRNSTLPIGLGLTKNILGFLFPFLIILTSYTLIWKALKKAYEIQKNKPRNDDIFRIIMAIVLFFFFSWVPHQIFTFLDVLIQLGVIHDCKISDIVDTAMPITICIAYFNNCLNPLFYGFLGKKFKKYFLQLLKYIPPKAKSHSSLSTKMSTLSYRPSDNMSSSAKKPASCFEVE
pIC50: −log10 of the molar value. Where a name gives a salt, the structure may show the parent alone.
Kindly return Condition met if reported pIC50 is no lower than 8; return Condition not met if it is lower.

| Compound | Label value |
| --- | --- |
| CCCCc1ncc(/C=C2/C(=O)NC(=O)N2Cc2cccs2)n1Cc1ccc(C2(C(=O)O)CCCC2)cc1 [Example 26b] | Condition met |
| CCCCc1ncc(/C=C2/C(=O)N(CCCC)C(=O)N2Cc2cc(Br)cs2)n1Cc1ccc(C(=O)OC)cc1 [Example 78, monohydrochloride] | Condition not met |
| CCCCc1ncc(/C=C2/C(=O)N(CCCC)C(=O)N2Cc2csc(Br)c2)n1Cc1ccc(C(=O)OC)cc1 [Example 81, monohydrochloride] | Condition not met |
| CCCCc1ncc(/C=C2\C(=O)NC(=O)N2CCCC)n1Cc1ccc(-c2nn[nH]n2)cc1 [Example 76b] | Condition met |
| CCCCc1ncc(/C=C2\C(=O)NC(=O)N2CCCC)n1Cc1ccc(NS(=O)(=O)C(F)(F)F)cc1 [Example 71b] | Condition met |

----------
Entries annotated with measured pIC50
# Tested system: AT1 receptor (Rattus norvegicus, UniProt P25095)
# Sequence (P25095 1-359): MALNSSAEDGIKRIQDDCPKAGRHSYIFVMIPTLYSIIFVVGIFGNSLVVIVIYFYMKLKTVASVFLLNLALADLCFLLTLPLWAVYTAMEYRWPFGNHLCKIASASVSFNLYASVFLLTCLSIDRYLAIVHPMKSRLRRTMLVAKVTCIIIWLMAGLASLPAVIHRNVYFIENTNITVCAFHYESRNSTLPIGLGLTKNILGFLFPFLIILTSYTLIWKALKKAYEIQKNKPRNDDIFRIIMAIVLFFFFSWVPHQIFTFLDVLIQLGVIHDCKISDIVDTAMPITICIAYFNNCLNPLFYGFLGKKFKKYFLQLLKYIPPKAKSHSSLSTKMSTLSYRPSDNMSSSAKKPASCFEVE
pIC50: −log10 of the molar value. Where a name gives a salt, the structure may show the parent alone.

| Compound | Tested system | pIC50 |
| --- | --- | --- |
| CCCCc1ncc(/C=C2/C(=O)NC(=O)N2CCCCO)n1Cc1ccc(C(=O)OC)cc1 [Example 17b] | AT1 receptor (Rattus norvegicus, UniProt P25095) | 7.31 |
| CCCCc1ncc(/C=C2/C(=O)N(CCCC)C(=O)N2CC2CCCCC2)n1Cc1ccc(C(=O)OC)cc1 [Example 43, mono hydrochloride] | AT1 receptor (Rattus norvegicus, UniProt P25095) | 8.48 |
| CCCCc1ncc(/C=C2/C(=O)N(CCCC)C(=O)N2CCc2ccccc2)n1Cc1ccc(C(=O)OC)cc1 [Example 41, mono hydrochloride] | AT1 receptor (Rattus norvegicus, UniProt P25095) | 7.51 |
| CCCCc1nc(Br)c(/C=C2/C(=O)NC(=O)N2CCCC)n1Cc1ccc(-c2ccccc2C(=O)OC)cc1 [Example 97a] | AT1 receptor (Rattus norvegicus, UniProt P25095) | 6.15 |
| CCCCc1ncc(/C=C2/C(=O)N(CCCC)C(=O)N2Cc2c(C)noc2C)n1Cc1ccc(C(=O)OC)cc1 [Example 69, monohydrochloride] | AT1 receptor (Rattus norvegicus, UniProt P25095) | 6.70 |
| CCCCCCN1C(=O)/C(=C/c2cnc(CCCC)n2Cc2ccc(C(=O)OC)cc2)N(CCCC)C1=O [Example 48, monohydrochloride] | AT1 receptor (Rattus norvegicus, UniProt P25095) | 7.84 |
| CCCCc1ncc(/C=C2/C(=O)N(CCCC)C(=O)N2Cc2ccc(Br)s2)n1Cc1ccc(C(=O)OC)cc1 [Example 77, monohydrochloride] | AT1 receptor (Rattus norvegicus, UniProt P25095) | 7.75 |

----------
# Tested system: AT1 receptor (Rattus norvegicus, UniProt P25095)
Where a name gives a salt, the structure may show the parent alone.
# IC50 listing for each entry below

| Compound | IC50 / nM |
| --- | --- |
| CCCCc1ncc(/C=C2/C(=O)N(CCCC)C(=O)N2Cc2csc(C)n2)n1Cc1ccc(C(=O)OC)cc1 [Example 68, dihydrochloride] | 4.2 |
| CCCCc1ncc(/C=C2/C(=O)NC(=O)N2Cc2cccs2)n1Cc1ccc(C(=O)O)cc1 [Example 6b] | 1.43 |
| CCCCc1ncc(/C=C2/C(=O)NC(=O)N2CCCC)n1Cc1ccc(C2(C(=O)OC)CCCCC2)cc1 [Example 88a] | 276 |
| CCCCc1ncc(/C=C2\C(=O)NC(=O)N2Cc2ccc(OC)c(OC)c2)n1Cc1ccc(C(=O)O)cc1 [Example 21a] | 111 |

----------
# Tested system: AT1 receptor (Rattus norvegicus)
# Sequence (P25095 1-359): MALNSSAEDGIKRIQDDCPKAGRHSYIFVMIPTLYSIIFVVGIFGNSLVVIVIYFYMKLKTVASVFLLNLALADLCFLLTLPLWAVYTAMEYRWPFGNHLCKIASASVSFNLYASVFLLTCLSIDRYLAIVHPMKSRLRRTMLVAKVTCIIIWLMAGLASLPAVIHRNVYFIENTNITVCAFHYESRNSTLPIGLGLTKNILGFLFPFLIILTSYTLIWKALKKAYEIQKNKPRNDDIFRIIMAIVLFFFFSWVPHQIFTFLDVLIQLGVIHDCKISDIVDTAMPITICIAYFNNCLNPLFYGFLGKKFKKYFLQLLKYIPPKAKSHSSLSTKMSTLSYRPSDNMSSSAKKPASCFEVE
Where a name gives a salt, the structure may show the parent alone.
Readout kind: IC50 (nM)

| Compound | Value units | Value relation sign | Quantitative readout |
| --- | --- | --- | --- |
| CCCCc1ncc(/C=C2/C(=O)N(CCCC)C(=O)N2CCCC)n1Cc1ccc(C(=O)OC)cc1 [Example 33, monohydrochloride] | nM | = | 8.49 |
| CCCCc1ncc(/C=C2/C(=O)N(CCCC(F)(F)F)C(=O)N2Cc2csc(C)n2)n1Cc1ccc(C(=O)OC)cc1 [Example 111, dihydrochloride] | nM | = | 70 |
| CCCCc1ncc(/C=C2/C(=O)N(CCCC)C(=O)N2Cc2cc(C)on2)n1Cc1ccc(C(=O)OC)cc1 | nM | = | 8.47 |
| CCCCc1ncc(/C=C2\C(=O)N(Cc3csc(C)n3)C(=O)N2CCCC)n1Cc1ccc(C(=O)OC)cc1 [Example 86, dihydrochloride] | nM | = | 4.58 |
| CCCCc1ncc(/C=C2\C(=O)NC(=O)N2Cc2cccs2)n1Cc1ccc(C(=O)O)cc1 | nM | = | 2.97 |
| CCCCc1ncc(/C=C2/C(=O)N(CCCC)C(=O)N2Cc2csc(N)n2)n1Cc1ccc(C(=O)OC)cc1 [Example 62, dihydrochloride] | nM | = | 1.21 |
| CCCCc1ncc(/C=C2\C(=O)NC(=O)N2CCC(C)C)n1Cc1ccc(C(=O)O)cc1 | nM | = | 9.4 |
| CCCCc1ncc(/C=C2/C(=O)NC(=O)N2CCCC)n1Cc1ccc(NS(=O)(=O)C(F)(F)F)cc1 [Example 71a] | nM | = | 3.21 |
| CCCCc1ncc(/C=C(/C(=O)O)N(CCCC)C(=O)NCOC)n1Cc1ccc(C(=O)OC)cc1 | nM | = | 377 |
| CCCCc1ncc(/C=C2/C(=O)NC(=O)N2Cc2ccc(Cl)cc2)n1Cc1ccc(C(=O)OC)cc1 [Example 64, monohydrochloride] | nM | = | 4.3 |
| CCCCc1ncc(/C=C2/C(=O)NC(=O)N2CCCC)n1Cc1ccc(-c2ccccc2C(=O)OC)cc1 [Example 96a] | nM | = | 15.9 |
| CCCCc1ncc(/C=C2\NC(=O)N(CCCC)C2=O)n1Cc1ccc(C(=O)OC)cc1 [Example 32a, monohydrochloride] | nM | = | 178 |
| CCCCc1ncc(/C=C2/NC(=O)N(CCCC)C2=O)n1Cc1ccc(C(=O)OC)cc1 [Example 32b] | nM | = | 1170 |
| CCCCc1ncc(/C=C2/C(=O)N(CCCC)C(=O)N2CCCC(F)(F)F)n1Cc1ccc(C(=O)OC)cc1 [Example 112, dihydrochloride] | nM | = | 6.44 |
| CCCCc1ncc(/C=C2\C(=O)NC(=O)N2Cc2cccs2)n1Cc1ccc(C(=O)OC)cc1 [Example 16a] | nM | = | 5.45 |
| CCCCc1ncc(/C=C2\C(=O)NC(=O)N2CCCC)n1Cc1ccc(-c2ccccc2C(=O)OC)cc1 [Example 96b] | nM | = | 9.86 |
| CCCCc1ncc(/C=C2/C(=O)N(CCCC)C(=O)N2CCCC)n1Cc1ccc(C(=O)OC)cc1 [Example 22, monohydrochloride] | nM | = | 1.67 |
| CCCCc1nc(Br)c(/C=C2\C(=O)NC(=O)N2CCCC)n1Cc1ccc(-c2ccccc2C(=O)OC)cc1 [Example 97b] | nM | = | 500 |
| CCCCc1ncc(/C=C2/C(=O)N(CCCC)C(=O)N2Cc2ccc(-c3ccccc3)cc2)n1Cc1ccc(C(=O)OC)cc1 | nM | > | 1000 |
| CCCCc1ncc(/C=C2\C(=O)N(CCCC)C(=O)N2Cc2cccs2)n1Cc1ccc(C(=O)OC)cc1 [Example 24, monohydrochloride] | nM | = | 10.3 |
| CCCCc1ncc(/C=C2/C(=O)N(CCCC)C(=O)N2Cc2nn[nH]n2)n1Cc1ccc(C(=O)OC)cc1 [Example 44, monohydrochloride] | nM | = | 41.7 |
| CCCCc1ncc(/C=C2/C(=O)N(CCCC)C(=O)N2Cc2ccccc2)n1Cc1ccc(C(=O)OC)cc1 [Example 36, monohydrochloride] | nM | = | 12.4 |
| CCCCc1ncc(/C=C2/C(=O)N(CCCC)C(=O)N2CCc2cccs2)n1Cc1ccc(C(=O)OC)cc1 [Example 79, monohydrochloride] | nM | = | 14.5 |
| CCCCc1ncc(/C=C2/C(=O)N(COC)C(=O)N2Cc2csc(C)n2)n1Cc1ccc(C(=O)OC)cc1 [Example 56, dihydrochloride] | nM | = | 47.8 |
| CCCCc1ncc(/C=C2\C(=O)NC(=O)N2CCCC)n1Cc1ccc(C2(C(=O)OC)CCCCC2)cc1 [Example 88b] | nM | = | 528 |
| CCCCc1ncc(/C=C2/C(=O)N(CCCC)C(=O)N2C(c2ccccc2)c2ccccc2)n1Cc1ccc(C(=O)OC)cc1 [Example 42, mono hydrochloride] | nM | = | 884 |
| CCCCc1ncc(/C=C2\C(=O)NC(=O)N2Cc2cccs2)n1Cc1ccc(C2(C(=O)O)CCCC2)cc1 [Example 26a] | nM | = | 2.63 |
